This collection of values is drawn from ChEMBL document CHEMBL1201862.

- system: UniProtKB Q6QLK5
- Sequence (Q6QLK5 whole entry, the tested form may be a part): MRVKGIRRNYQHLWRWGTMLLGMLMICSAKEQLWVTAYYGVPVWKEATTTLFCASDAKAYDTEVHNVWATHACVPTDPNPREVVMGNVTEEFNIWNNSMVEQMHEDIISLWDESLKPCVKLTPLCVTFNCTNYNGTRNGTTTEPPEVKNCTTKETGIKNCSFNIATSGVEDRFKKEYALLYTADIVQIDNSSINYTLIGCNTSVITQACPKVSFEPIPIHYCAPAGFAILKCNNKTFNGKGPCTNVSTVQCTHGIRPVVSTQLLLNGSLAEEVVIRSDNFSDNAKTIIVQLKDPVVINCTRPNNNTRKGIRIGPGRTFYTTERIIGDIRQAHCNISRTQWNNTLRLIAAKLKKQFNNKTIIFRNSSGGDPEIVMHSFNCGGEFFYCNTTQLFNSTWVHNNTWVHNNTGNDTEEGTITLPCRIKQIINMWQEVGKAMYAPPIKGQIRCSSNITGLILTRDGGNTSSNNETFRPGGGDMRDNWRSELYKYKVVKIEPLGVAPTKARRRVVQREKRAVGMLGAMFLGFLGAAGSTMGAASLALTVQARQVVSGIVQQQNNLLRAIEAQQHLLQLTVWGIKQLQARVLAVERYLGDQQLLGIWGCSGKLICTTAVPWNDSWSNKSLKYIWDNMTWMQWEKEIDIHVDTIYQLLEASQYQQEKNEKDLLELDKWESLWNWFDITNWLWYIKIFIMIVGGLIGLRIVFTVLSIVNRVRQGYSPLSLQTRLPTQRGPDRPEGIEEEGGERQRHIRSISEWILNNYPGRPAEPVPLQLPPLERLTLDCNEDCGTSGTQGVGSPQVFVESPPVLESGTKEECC
- experimentDescription: cell-free HIV fusion peptide-binding blockers – biochemical, uHTS, fluorescence dequenching, […] (AID 1986)
Active and inactive are the calls of the source. Cut-off read from the data, not from the text of the source: actives have a measured IC50 and inactives only a lower limit.
Listed molecules paired with reported IC50
measuredAttribute: IC50

{"molecule": "CC1(c2ccccc2)CC(C)(C)N2C(=O)/C(=C3\\SC(=S)NC3=O)c3cccc1c32 (centres undefined)", "measuredAttribute": "IC50", "result": "83.8 µM (active)"}
{"molecule": "O=C(COc1ccc(Cl)cc1)Nc1cc(NC(=O)COc2ccc(Cl)cc2)cc(C(=O)O)c1", "measuredAttribute": "IC50", "result": "26.4 µM (active)"}
{"molecule": "O=C1NN(c2ccccc2)C(=O)/C1=C\\c1cccc(OC(=O)c2cccs2)c1", "measuredAttribute": "IC50", "result": "33.9 µM (active)"}
{"molecule": "Cc1cc(Cl)ccc1OC(C)C(=O)Nc1ccc(C(=O)Nc2ccccc2C(=O)O)cc1 (centres undefined)", "measuredAttribute": "IC50", "result": "13.1 µM (active)"}
